System: COLO 205 colon
Assay: NCI tumour cell line growth inhibition, 48 h
Kindly supply the reported TGI values for the records listed here.

O=C(NC(=O)c1c(F)cccc1F)Nc1cccc(Oc2ncc(Cl)cn2)c1 | > 100 µM

Record TGI for all entries; do not skip any.
1. CNc1ncccc1Nc1cc(=O)n2c3cccnc3n(C)c2c1
2. CCCCCCCCn1ccc2cc(NC(=O)Cn3cc(CN4CCCCCC4)nn3)ccc21
3. CC(=O)c1ccc(NC(=O)/C(CC(=O)c2sc(-c3cccnc3)nc2C)=N/NC(N)=O)cc1
4. COc1ccc(Cn2c(=O)c(OC)c(C)c3cc4ccccc4cc32)cc1

Response line:
["> 100 µM", "3.25 µM", "35.2 µM", "40.2 µM"]

Prompt line: Returns the measured TGI for the input molecule. Input: Nc1ccccc1CCN1CCN(CCCc2ccccc2)CC1
Response line: 55 µM
